- SYSTEM: Neuropilin-1 (Homo sapiens) (UniProt O14786)
- Sequence (O14786 whole entry, looked up): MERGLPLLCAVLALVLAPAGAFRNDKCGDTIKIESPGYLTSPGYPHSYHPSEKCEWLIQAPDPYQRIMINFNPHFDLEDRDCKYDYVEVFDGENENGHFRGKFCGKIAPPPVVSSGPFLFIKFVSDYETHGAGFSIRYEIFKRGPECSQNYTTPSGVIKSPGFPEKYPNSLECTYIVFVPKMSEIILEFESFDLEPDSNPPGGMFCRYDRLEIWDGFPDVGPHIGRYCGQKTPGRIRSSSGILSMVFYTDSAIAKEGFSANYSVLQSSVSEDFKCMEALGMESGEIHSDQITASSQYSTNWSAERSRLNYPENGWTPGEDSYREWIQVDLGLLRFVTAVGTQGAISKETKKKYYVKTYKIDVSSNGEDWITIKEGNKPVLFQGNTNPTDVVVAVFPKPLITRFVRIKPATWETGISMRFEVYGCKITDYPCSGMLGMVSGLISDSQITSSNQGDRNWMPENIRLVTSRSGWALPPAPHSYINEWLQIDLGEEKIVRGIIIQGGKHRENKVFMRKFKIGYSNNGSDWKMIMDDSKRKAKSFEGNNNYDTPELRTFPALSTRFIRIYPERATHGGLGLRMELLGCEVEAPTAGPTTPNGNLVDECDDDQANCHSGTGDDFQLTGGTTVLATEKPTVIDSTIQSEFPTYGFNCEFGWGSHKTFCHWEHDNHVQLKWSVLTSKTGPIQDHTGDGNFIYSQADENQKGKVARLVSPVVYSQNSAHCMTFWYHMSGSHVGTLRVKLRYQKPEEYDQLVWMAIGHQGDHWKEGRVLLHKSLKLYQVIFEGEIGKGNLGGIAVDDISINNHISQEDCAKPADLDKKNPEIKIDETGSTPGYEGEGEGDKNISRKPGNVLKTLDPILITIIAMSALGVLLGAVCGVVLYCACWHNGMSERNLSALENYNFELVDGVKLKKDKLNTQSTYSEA
- PROTOCOL NOTES: NRP-1 b1b2 CendR peptide binding inhibitors, dose response, biochemical, FP and AlphaScreen panel (AID 651650)
- CONDITION PARAMETERS: NRP-1 b1b2 / RPARPAR peptide binding, FP or AlphaScreen; FP, mean of runs
Activity calls are given as the source filed them.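 The calls were made as follows: active = mean IC50 below 20 µM in each of the two panels, so potent in both; inactive = the rest.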
Labels: active, inactive

# COMPOUND, CLASS NAME
records = [
    ("O=C(CCn1c(=O)c2cccn2c2cccnc21)NCc1cccc(Cl)c1", "inactive"),
    ("COc1ccc(N(CC(=O)NCc2ccco2)C(=O)CCC(=O)Nc2ccccn2)cc1", "inactive"),
    ("C=CCOc1c(CNc2ncn[nH]2)cccc1OCC", "active"),
    ("CC(C)NC(=O)c1c(CSc2ccccc2)noc1C(=O)NCc1ccccc1", "inactive"),
    ("COc1cc(OC)nc(NC(=O)COC(=O)c2cccc(Cl)c2)n1", "inactive"),
    ("Cc1nn(-c2ccccc2)c(C)c1C(=O)OCC(=O)Nc1ccccc1", "inactive"),
    ("Cc1ccccc1NC(=S)NC(=O)COc1ccccc1C", "inactive"),
    ("CCCCC1CCC(C(=O)NC2CCS(=O)(=O)C2)CC1 (stereo not drawn)", "inactive"),
    ("COc1ccc(-c2csc(NCCc3nc4cc(C(=O)NCCCO)ccc4n3Cc3ccc(C)cc3)n2)cc1", "inactive"),
    ("COc1ccc(NC(=O)CN(C)CC(=O)Nc2cccc(F)c2)cc1Cl", "inactive"),
    ("COc1ccc(NC(=O)CN2CCN(c3c(C)cc(C)cc3C)CC2)cc1", "inactive"),
    ("Cc1ccc(NNS(=O)(=O)c2ccc(C)cc2)cc1", "inactive"),
    ("O=C(CSC1CN(C(c2ccccc2)c2ccccc2)C1)N/N=C/c1ccccc1", "inactive"),
    ("CCCc1c(C)nc(N2CCN(c3ccccc3OC)CC2)[nH]c1=O", "inactive"),
    ("COc1ccc(NC(=O)C(C)Sc2ccccc2)cc1 (stereo not drawn)", "inactive"),
    ("O=C(Nc1cc(C(F)(F)F)ccc1N1CCCC1)C1CC(=O)N(Cc2ccccc2)C1 (stereo not drawn)", "inactive"),
    ("CC1(C(=O)NCc2cccc3ccccc23)CCN1Cc1cccc2c1OCO2 (stereo not drawn)", "inactive"),
    ("O=C(COC(=O)C1CC(=O)N(Cc2ccccc2)C1)Nc1ccccc1F (stereo not drawn)", "inactive"),
    ("CN1C[C@H](CO)C=C2c3cccc4[nH]cc(c34)C[C@H]21", "inactive"),
    ("C=C1CCN([C@@H](CC(C)C)C(=O)NCc2ccccc2)S(=O)(=O)c2ccccc21", "inactive"),
    ("OCC[C@H]1C[C@H](O)[C@@H](O)[C@]2(CCCCO2)O1", "inactive"),
    ("COc1ccc(C(O)c2nc(-c3ccc4ccccc4c3)cs2)cc1 (stereo not drawn)", "inactive"),
    ("Cn1c(=O)c2[nH]c(NCCCN3CCOCC3)nc2n(C)c1=O", "inactive"),
]

====

- SYSTEM: Neuropilin-1 (Homo sapiens) (UniProt O14786)
- PROTOCOL NOTES: NRP-1 b1b2 CendR peptide binding inhibitors, dose response, biochemical, FP and AlphaScreen panel (AID 651650)
- CONDITION PARAMETERS: NRP-1 b1b2 / RPARPAR peptide binding, FP or AlphaScreen; AlphaScreen, mean of runs
The source made the active and inactive calls.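 How the source made its calls: active means mean IC50 below 20 µM in each of the two panels, so potent in both; inactive means the rest.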
Outcome codes: active, inactive

# MOLECULE, SYSTEM, CLASS NAME
rows = [
    ("CCN1C(=O)C(=O)c2cc(C)ccc21", "Neuropilin-1 (Homo sapiens) (UniProt O14786)", "inactive"),
    ("CCOC(=O)/C=C/COc1ccccc1[N+](=O)[O-]", "Neuropilin-1 (Homo sapiens) (UniProt O14786)", "inactive"),
    ("CC(Nc1nc(-c2ccc(F)cc2)cs1)c1nc2cc(C(F)(F)F)ccc2n1CCOCCO (configuration not stated)", "Neuropilin-1 (Homo sapiens) (UniProt O14786)", "inactive"),
    ("Cc1ccc(NC(=S)N2CCN(Cc3ccccc3)CC2)cc1", "Neuropilin-1 (Homo sapiens) (UniProt O14786)", "inactive"),
    ("CCc1ccc(NC(=O)CCn2nc(C)c(S(=O)(=O)N3CCCCC3)c2C)cc1", "Neuropilin-1 (Homo sapiens) (UniProt O14786)", "inactive"),
    ("CSc1cccc(CN2CCN(Cc3ccccc3)C(CCO)C2)c1 (configuration not stated)", "Neuropilin-1 (Homo sapiens) (UniProt O14786)", "inactive"),
    ("CN1C[C@H](CO)C=C2c3cccc4[nH]cc(c34)C[C@H]21", "Neuropilin-1 (Homo sapiens) (UniProt O14786)", "active"),
    ("CC(=O)Nc1cccc(-c2csc(NCc3ccccc3)n2)c1", "Neuropilin-1 (Homo sapiens) (UniProt O14786)", "inactive"),
    ("COc1ccccc1COc1ccc2c(C)c(CC(=O)O)c(=O)oc2c1C", "Neuropilin-1 (Homo sapiens) (UniProt O14786)", "inactive"),
    ("OCCNc1ncnc2ccc(Br)cc12", "Neuropilin-1 (Homo sapiens) (UniProt O14786)", "inactive"),
    ("Cc1ccc(C(=O)Nc2nnc([C@H]3C[C@H](O)[C@@H](CO)O3)s2)cc1", "Neuropilin-1 (Homo sapiens) (UniProt O14786)", "inactive"),
    ("CC(/C=C/c1ccccc1)=N\\NC(=O)CCc1ccccc1", "Neuropilin-1 (Homo sapiens) (UniProt O14786)", "inactive"),
]

====

Known pIC50 of a selection of compounds
- SYSTEM: Neuropilin-1 (Homo sapiens)
- PROTOCOL NOTES: NRP-1 b1b2 CendR peptide binding inhibitors, dose response, biochemical, FP and AlphaScreen panel (AID 651650)
- CONDITION PARAMETERS: NRP-1 b1b2 / RPARPAR peptide binding, FP or AlphaScreen; FP, run 2; individual panel run IC50
pIC50: −log10 of the molar value.

# COMPOUND, pIC50
rows = [
    ("CC(=O)/C(=N\\Nc1ccc(Cl)cc1Cl)Sc1cccc2cccnc12", "< 4.02"),
    ("O=C(CCn1c(=O)c2cccn2c2cccnc21)NCc1cccc(Cl)c1", "< 4.02"),
    ("Cc1ccc(C)c(-n2c(SCC(=O)NC(C(=O)O)C(C)C)nnc2-c2cccc(Cl)c2)c1 (configuration not stated)", "< 4.02"),
    ("CC(C)(C)OC(=O)N1CCN(C(=O)c2[nH]cnc2C(=O)NCc2ccccc2)CC1", "< 4.02"),
    ("O=C(c1ccccn1)N1CCN(S(=O)(=O)c2ccccc2)CC1", "< 4.02"),
    ("CCCc1c(C)nc(N2CCN(c3ccccc3OC)CC2)[nH]c1=O", "< 4.02"),
    ("Oc1ccc(-c2nc3ncccn3c2Nc2ccc3c(c2)OCO3)cc1", "< 4.02"),
    ("c1ccc2c(CNc3ccc(CNc4ncn[nH]4)cc3)cccc2c1", "< 4.02"),
    ("CC(C(=O)N1CCN(c2ccc(Cl)cc2)CC1)c1ncc(C(F)(F)F)cc1Cl (configuration not stated)", "< 4.02"),
    ("CC1CCC(NC(=O)CSc2nncn2C)CC1 (configuration not stated)", "< 4.02"),
    ("Cc1ccc(C(=O)C2CN3CCC2CC3)cc1 (configuration not stated)", "< 4.02"),
    ("CC(=O)Nc1ccc(NC(=O)C2CC(=O)N(c3ccc(Cl)cc3)C2)cc1 (configuration not stated)", "< 4.02"),
    ("CCOC(=O)C1=CCN(S(=O)(=O)c2ccccc2Br)C1c1ccccc1 (configuration not stated)", "< 4.02"),
    ("O=C(Cc1ccc(F)cc1)N1CCN=C1SCc1ccc([N+](=O)[O-])cc1", "< 4.02"),
    ("Cc1ccc(S(=O)(=O)NCC(=O)N(c2ccccc2)C(C(=O)NCc2ccccc2)c2ccco2)cc1 (configuration not stated)", "< 4.02"),
    ("Cc1cn([C@H]2C[C@H](O)[C@@H](CCC(=O)NCCc3ccc4ccccc4c3)O2)c(=O)[nH]c1=O", "< 4.02"),
    ("O=C(OCn1nnc2ccccc2c1=O)c1ccc(Br)o1", "< 4.02"),
    ("CC(=O)NCCNc1nc(NC(C)C)nc2ccsc12", "< 4.02"),
    ("CC(C)(C)OC(=O)NCc1ccc(CNC(=O)c2nc[nH]c2C(=O)N2CCN(C(=O)OC(C)(C)C)CC2)cc1", "< 4.02"),
    ("Cc1ccc(C(=O)O)cc1NC(=O)Nc1cccc2ccccc12", "< 4.02"),
    ("Cc1ccc(C(=O)NCCCc2ccccc2)c(C)c1", "< 4.02"),
    ("O=C(COC(=O)C1CC(=O)N(Cc2ccccc2)C1)Nc1ccccc1F (configuration not stated)", "< 4.02"),
]
